Source listed as ChEMBL document CHEMBL3585278.

System: Liver microsome
Assay: Clearance in human liver microsomes assessed as initial mean metabolism rate at 5 uM at protein concentration of 1 mg/ml measured per mg protein up to 30 mins by LC-MS/MS analysis
Assay type: ADME
Conditions: 0.5 h
measuredEndpoint: metabolic rate (nmol/min/mg)
Give bare numbers, in nmol/min/mg.

[[record]]
molecule = "[2H]c1cc2c(C([2H])([2H])[2H])c([2H])n(N(c3ccncc3F)C([2H])([2H])C([2H])([2H])C([2H])([2H])[2H])c2c([2H])c1[2H]"
unitspec = "nmol/min/mg"
observedmeasurement = 0.217


Problem: For CCCN(c1ccncc1F)n1cc(C)c2ccccc21 [NERISPIRDINE] , what is its reported metabolic rate?
Solution: 0.253

* * *

Give measured half-life for each item. Keep answers brief.
Assay: Half-life in Sprague-Dawley rat at 20 mg/kg, po by LC-MS/MS analysis
Format: ADME, organism-based
Details: in vivo
Please provide the amount together with its unit, number first.

[[record]]
compound = "[2H]c1cc2c(C([2H])([2H])[2H])c([2H])n(N(c3ccncc3F)C([2H])([2H])C([2H])([2H])C([2H])([2H])[2H])c2c([2H])c1[2H]"
observedmeasurement = "11.1 h"


We now examine a further compound.
Problem: For CCCN(c1ccncc1F)n1cc(C)c2ccccc21 , what is its reported half-life?
Solution: 10.2 h

* * *

System: Liver microsome
Assay: Drug metabolism in human liver microsomes assessed as metabolic reaction rate at 1 uM measured up to 3 hrs by LC-MS/MS analysis
Format: ADME
measuredEndpoint: Drug metabolism (nmol/min/mg)
Give bare numbers, in nmol/min/mg.

[[record]]
compound = "NCc1cccc(C2CCN(C(=O)c3ccc(C#Cc4ccccc4F)o3)CC2)c1"
unitspec = "nmol/min/mg"
observedmeasurement = 0.0201


We now examine a further compound.
Problem: For [2H]C([2H])(N)c1cccc(C2CCN(C(=O)c3ccc(C#Cc4ccccc4F)o3)CC2)c1 , what is its reported Drug metabolism?
Solution: 0.0048

* * *

Tested on: Liver
Assay: Drug metabolism in human liver S9 fraction assessed as metabolic reaction rate at 10 uM measured up to 3 hrs by LC-MS/MS analysis
Assay type: ADME, subcellular
Settings: s9, 3 h
Give measured Drug metabolism for each item. Keep answers brief.
Answers are plain numbers, in nmol/min/mg.

Dear colleague, could you send me Drug metabolism for each of the items below? Thanks.
1. [2H]C([2H])(N)c1cccc(C2CCN(C(=O)c3ccc(C#Cc4ccccc4F)o3)CC2)c1
2. NCc1cccc(C2CCN(C(=O)c3ccc(C#Cc4ccccc4F)o3)CC2)c1

Solution:
[0.0043, 0.0238]

* * *

Test: AUClast in Sprague-Dawley rat at 20 mg/kg, po by LC-MS/MS analysis
Assay type: ADME, organism-based
Set-up: dose 20 mg/kg, route oral, time 0 - last
Settings: in vivo
measuredEndpoint: AUC(0-t)
Please provide the amount together with its unit, number first.

[[record]]
compound = "CCCN(c1ccncc1F)n1cc(C)c2ccccc21"
observedmeasurement = "4.07 µg·h/mL"


We now examine a further compound.
Problem: For [2H]c1cc2c(C([2H])([2H])[2H])c([2H])n(N(c3ccncc3F)C([2H])([2H])C([2H])([2H])C([2H])([2H])[2H])c2c([2H])c1[2H] , what is its reported AUC(0-t)?
Solution: 3.67 µg·h/mL

* * *

Give measured CLint for each item. Keep answers brief.
Test system: Hepatocyte
Experiment: Clearance in human hepatocytes at 2 uM measured per 10^6 cells up to 24 hrs by LC-MS/MS analysis
Type: ADME, cell-based
Please provide the amount together with its unit, number first.

[[record]]
compound = "CCCN(c1ccncc1F)n1cc(C)c2ccccc21 [NERISPIRDINE]"
studysystem = "Hepatocyte"
measuredendpoint = "CLint"
observedmeasurement = "0.415 mL/h/10^6 cells"


We now examine a further compound.
Problem: For [2H]c1cc2c(C([2H])([2H])[2H])c([2H])n(N(c3ccncc3F)C([2H])([2H])C([2H])([2H])C([2H])([2H])[2H])c2c([2H])c1[2H] , what is its reported CLint?
Solution: 0.572 mL/h/10^6 cells

* * *

System: Liver
Assay: Drug metabolism in human liver S9 fraction assessed as metabolic reaction rate at 1 uM measured up to 3 hrs by LC-MS/MS analysis
Type: ADME, subcellular
Conditions: s9, 3 h
measuredEndpoint: Drug metabolism (nmol/min/mg)
Answers are plain numbers, in nmol/min/mg.

[[record]]
compound = "[2H]C([2H])(N)c1cccc(C2CCN(C(=O)c3ccc(C#Cc4ccccc4F)o3)CC2)c1"
measuredendpoint = "Drug metabolism"
observedmeasurement = 0.0081


We now examine a further molecule.
Problem: For NCc1cccc(C2CCN(C(=O)c3ccc(C#Cc4ccccc4F)o3)CC2)c1 , what is its reported Drug metabolism?
Solution: 0.0219

* * *

Give measured AUC for each item. Keep answers brief.
Assay: AUC in Sprague-Dawley rat at 20 mg/kg, po by LC-MS/MS analysis
Format: ADME, organism-based
Details: in vivo
Answers are plain numbers, in ng·h/mL.

[[record]]
compound = "CCCN(c1ccncc1F)n1cc(C)c2ccccc21 [NERISPIRDINE]"
observedmeasurement = 4180


Problem: For [2H]c1cc2c(C([2H])([2H])[2H])c([2H])n(N(c3ccncc3F)C([2H])([2H])C([2H])([2H])C([2H])([2H])[2H])c2c([2H])c1[2H] , what is its reported AUC?
Solution: 3800

* * *

System: Hepatocyte
Assay: Clearance in human hepatocytes at 10 uM measured per 10^6 cells up to 24 hrs by LC-MS/MS analysis
Format: ADME, cell-based
Give measured CLint for each item. Keep answers brief.
Please provide the amount together with its unit, number first.

[[record]]
compound = "CCCN(c1ccncc1F)n1cc(C)c2ccccc21 [NERISPIRDINE]"
measuredendpoint = "CLint"
observedmeasurement = "0.2 mL/h/10^6 cells"


We now examine a further compound.
Problem: Could you share what CLint was measured for [2H]c1cc2c(C([2H])([2H])[2H])c([2H])n(N(c3ccncc3F)C([2H])([2H])C([2H])([2H])C([2H])([2H])[2H])c2c([2H])c1[2H] , tested on Hepatocyte?
Solution: 0.196 mL/h/10^6 cells

* * *

Test system: Liver microsome
Experiment: Clearance in human liver microsomes assessed as initial mean metabolism rate at 5 uM at protein concentration of 0.25 mg/ml measured per mg protein up to 30 mins by LC-MS/MS analysis
Format: ADME
Conditions: 0.5 h
measuredEndpoint: metabolism rate (nmol/min/mg)
Give bare numbers, in nmol/min/mg.

Dear colleague, could you send me metabolism rate for each of the items below? Thanks.
1. [2H]c1cc2c(C([2H])([2H])[2H])c([2H])n(N(c3ccncc3F)C([2H])([2H])C([2H])([2H])C([2H])([2H])[2H])c2c([2H])c1[2H]
2. CCCN(c1ccncc1F)n1cc(C)c2ccccc21

Solution:
1. 0.42
2. 1.15

* * *

Tested on: Hepatocyte
Test: Drug metabolism in human hepatocytes assessed as metabolic reaction rate at 1 uM measured per 10^6 cells up to 3 hrs by LC-MS/MS analysis
Format: ADME, cell-based
Give measured Drug metabolism for each item. Keep answers brief.
Answers are plain numbers, in nmol/min/10^6 cells.

[[record]]
compound = "[2H]C([2H])(N)c1cccc(C2CCN(C(=O)c3ccc(C#Cc4ccccc4F)o3)CC2)c1"
observedmeasurement = 0.0143


We now examine a further compound.
Problem: For NCc1cccc(C2CCN(C(=O)c3ccc(C#Cc4ccccc4F)o3)CC2)c1 , what is its reported Drug metabolism?
Solution: 0.0143

* * *

Test system: Liver microsome
Assay: Drug metabolism in human liver microsomes assessed as metabolic reaction rate at 10 uM measured up to 3 hrs by LC-MS/MS analysis
Assay type: ADME
measuredEndpoint: Drug metabolism

Dear colleague, could you send me Drug metabolism for each of the items below? Thanks.
1. [2H]C([2H])(N)c1cccc(C2CCN(C(=O)c3ccc(C#Cc4ccccc4F)o3)CC2)c1
2. NCc1cccc(C2CCN(C(=O)c3ccc(C#Cc4ccccc4F)o3)CC2)c1

Solution:
1. 0.0045 nmol/min/mg
2. 0.0215 nmol/min/mg

* * *

Experiment: Cmax in Sprague-Dawley rat at 20 mg/kg, po by LC-MS/MS analysis
Assay type: ADME, organism-based
Parameters: dose 20 mg/kg, route oral
Conditions: in vivo
Give measured Cmax for each item. Keep answers brief.
Numbers only, in ng/mL.

[[record]]
molecule = "[2H]c1cc2c(C([2H])([2H])[2H])c([2H])n(N(c3ccncc3F)C([2H])([2H])C([2H])([2H])C([2H])([2H])[2H])c2c([2H])c1[2H]"
observedmeasurement = 971


Problem: For CCCN(c1ccncc1F)n1cc(C)c2ccccc21 [NERISPIRDINE] , what is its reported Cmax?
Solution: 822

* * *

Test: Tmax in Sprague-Dawley rat at 20 mg/kg, po by LC-MS/MS analysis
Format: ADME, organism-based
Conditions: in vivo
Give measured Tmax for each item. Keep answers brief.
Give bare numbers, in min.

[[record]]
compound = "[2H]c1cc2c(C([2H])([2H])[2H])c([2H])n(N(c3ccncc3F)C([2H])([2H])C([2H])([2H])C([2H])([2H])[2H])c2c([2H])c1[2H]"
observedmeasurement = 30


We now examine a further compound.
Problem: For CCCN(c1ccncc1F)n1cc(C)c2ccccc21 , what is its reported Tmax?
Solution: 60
